Can you tell me AC50 for the items I'm about to list?
Test system: INS-1E rat beta cells, no cytokines, CellTiter-Glo ATP, 48 h
Assay: cytokine-free beta-cell viability effect – INS-1E rat cells, ATP luminescence, cherry pick, counter-screen for beta-cell apoptosis protection project, dose response (AID 463229)

Identify AC50 associated with the molecule O=C(N/N=C\c1ccc([N+](=O)[O-])s1)c1cncc(Br)c1
6.53 µM

Quickly give me recorded AC50 for c1nc(NCc2ccc3c(c2)OCO3)c2cc(-c3ccc4c(c3)OCCO4)ccc2n1
15.5 µM

Name the recorded AC50 of the molecule listed here: Cc1cc(N2CCC(C)CC2)nc(NCc2ccccc2)n1
12.3 µM

# return recorded AC50 for input Cc1ccc2c(c1)N(C)/C(=C/c1cccc[n+]1CCO)S2
3.18 µM

Output measured AC50 for this item: O=C(N/N=C/c1cc(Br)c(O)c(Br)c1O)c1ccc2c(c1)OCCO2
8.27 µM

Tell me its AC50 given CC(=O)Oc1c(I)cc(I)cc1C(=O)Nc1ccc(Cl)cc1 as the entry.
14.8 µM
